Record type: -Delta G measurement. Applies to: Dihydrofolate reductase (Enterococcus faecium)
Readout Label: -Delta G (kcal/mol)

A = Nc1nc(N)c2c([S+]([O-])c3ccc4ccccc4c3)cccc2n1 (configuration not stated)
B = Nc1nc(N)c2c(Cl)c(CNc3ccc(C(=O)O)cc3)ccc2n1
Hey, between A and B which has a smaller measured -Delta G? Write the label of whichever entry you select. A

* * *

Entries with their measured -Delta G, system Dihydrofolate reductase (Enterococcus faecium):
Readout Label: -Delta G (kcal/mol)

Compound: Nc1nc(N)c2c(/C=C/c3ccc4ccccc4c3)cccc2n1
Quantitative Readout: 10.7
--
Compound: CCOC(=O)c1ccc(NCc2ccc3nc(N)nc(N)c3c2)cc1
Quantitative Readout: 11.4
--
Compound: Nc1nc(O)c2cc(S(=O)(=O)c3ccc(Cl)c(Cl)c3)ccc2n1
Quantitative Readout: 8.2
--
Compound: Nc1nc(O)c2cc(S(=O)(=O)c3ccc4ccccc4c3)ccc2n1
Quantitative Readout: 9.6
--
Compound: Nc1nc(N)c2c([S+]([O-])c3ccc(Cl)c(Cl)c3)cccc2n1 (stereo unspecified)
Quantitative Readout: 7.3
--
Compound: CCOC(=O)c1ccc(CNc2ccc3nc(N)nc(O)c3c2)cc1
Quantitative Readout: 8.6

* * *

# System: Dihydrofolate reductase (Enterococcus faecium)
Readout Label: -Delta G (kcal/mol)

Compound: Nc1nc(S)c2cc(S(=O)(=O)c3ccc4ccccc4c3)ccc2n1
Unit Abbreviation: kcal/mol
-Delta G: 8
//
Compound: Nc1nc(O)c2c(S(=O)(=O)c3ccc4ccccc4c3)cccc2n1
Unit Abbreviation: kcal/mol
-Delta G: 9
//
Compound: CCOC(=O)c1ccc(NCc2ccc3nc(N)nc(O)c3c2)cc1
Unit Abbreviation: kcal/mol
-Delta G: 10.6
//
Compound: Cc1c(CNc2ccc(C(=O)O)cc2)ccc2nc(N)nc(N)c12
Unit Abbreviation: kcal/mol
-Delta G: 11.8
//
Compound: CCOC(=O)c1ccc(CNc2ccc3nc(N)nc(O)c3c2C)cc1
Unit Abbreviation: kcal/mol
-Delta G: 7.1

1 = Nc1nc(N)c2c(S(=O)(=O)c3ccc4ccccc4c3)cccc2n1
2 = Nc1nc(N)c2c(CCc3ccc4ccccc4c3)cccc2n1
Lab note: record which item had the higher -Delta G, 1 or 2 . // caller expects the label of the chosen entry 2
(2: 11.9 kcal/mol, 1: 6.5 kcal/mol)

P = Nc1nc(O)nc2ccc(Sc3ccc4ccccc4c3)cc12
Q = Nc1nc(N)c2c(Sc3ccc(Cl)c(Cl)c3)cccc2n1
I'm curious whether P or Q has the smaller -Delta G number. Which is it? Give the chosen item's label as your response. P

P = Nc1nc(O)c2cc(CNc3ccc(C(=O)O)cc3)ccc2n1
Q = Sc1nc(S)c2cc(Sc3ccc4ccccc4c3)ccc2n1
Hi! Which is lower in terms of -Delta G, the first one P or the second one Q ? State the label of the item chosen. Q

* * *

# -Delta G measurements, system: Dihydrofolate reductase (Enterococcus faecium)
Readout Label: -Delta G (kcal/mol)

Some solved entries appear below for comparison.
Compound: Nc1nc(O)c2cc(Sc3ccc4ccccc4c3)ccc2n1
Unit Abbreviation: kcal/mol
-Delta G: 10.2
//
Compound: Nc1nc(S)c2cc(Sc3ccc4ccccc4c3)ccc2n1
Unit Abbreviation: kcal/mol
-Delta G: 9.3
//
Compound: CCCCOC(=O)c1ccc(NCc2ccc3nc(N)nc(N)c3c2)cc1
Unit Abbreviation: kcal/mol
-Delta G: 11.2
//
Compound: Nc1ncnc2ccc(Sc3ccc4ccccc4c3)cc12
Unit Abbreviation: kcal/mol
-Delta G: 6.5
//
Compound: CCOC(=O)c1ccc(CNc2ccc3nc(N)nc(N)c3c2)cc1
Unit Abbreviation: kcal/mol
-Delta G: 11

1 = Nc1ncnc2ccc(S(=O)(=O)c3ccc4ccccc4c3)cc12
2 = CCOC(=O)c1ccc(CNc2ccc3nc(N)nc(N)c3c2Cl)cc1
Which of the two gives a bigger number for -Delta G: 1 or 2 ? The response must carry the label of the picked entry. 2

1 = Nc1nc(S)nc2ccc(Sc3ccc4ccccc4c3)cc12
2 = Nc1nc(N)c2c(Sc3ccc4ccccc4c3)cccc2n1
Between the two listed entries 1 and 2 , which has its -Delta G at the higher number? # respond with the chosen item's label 2

I = Nc1nc(O)c2cc([S+]([O-])c3ccc4ccccc4c3)ccc2n1 (centres undefined)
II = Nc1nc(N)c2cc([S+]([O-])c3ccc4ccccc4c3)ccc2n1 (centres undefined)
Form field 'greater -Delta G' accepts I or II ; which applies? Please identify the chosen entry by its label. II

a = Nc1nc(N)c2cc(S(=O)(=O)c3ccc(Cl)c(Cl)c3)ccc2n1
b = O=c1[nH]c(=S)c2cc(Sc3ccc4ccccc4c3)ccc2[nH]1
Please compare: a and b . Report which one has the smaller -Delta G value. Write down the label of the entry you select. b
(b: 6.8 kcal/mol, a: 13.4 kcal/mol)
